Overview of reported protein stability index across a group of variants:
B1: LOXL2 (parent)
chain: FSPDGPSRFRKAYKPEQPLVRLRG

Variants of: B1
assayComment: protein stability index of a GFP-peptide fusion (GPS, HEK-293T) (PSI 1-6); higher = more stable;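 note: lentivirally expressed fusions sorted by FACS into six bins by GFP to DsRed ratio, PSI derived from sequencing read proportions per bin multiplied by bin number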
details: c terminus: a fixed tail appended

{"mutationAnnotation": "E16Y", "protein stability index": 2.75}
{"mutationAnnotation": "E16G", "protein stability index": 1.54}
{"mutationAnnotation": "R10H", "protein stability index": 1.02}
{"mutationAnnotation": "P15V", "protein stability index": 2.28}
{"mutationAnnotation": "S2Q", "protein stability index": 1.22}
{"mutationAnnotation": "R10C", "protein stability index": 3.46}
{"mutationAnnotation": "D4K", "protein stability index": 1.97}
{"mutationAnnotation": "V20G", "protein stability index": 1.41}
{"mutationAnnotation": "S7C", "protein stability index": 3.07}
{"mutationAnnotation": "P18G", "protein stability index": 1.66}
{"mutationAnnotation": "P3L", "protein stability index": 1.96}
